target: T1, cynomolgus CD38 ECD (cynomolgus, UniProt Q5VAN0 44-301, biotinylated on the AviTag during preparation); assay: ELISA: plate coated with 1 ug/ml recombinant cynomolgus CD38 ECD, serially diluted antibody, OD450
T1 construct: also called Cyno-CD38; Avi-Cyno CD38 ECD
For each of the binders below, state its EC50 (read off the curve).

Reported EC50 (read off the curve), binder 21H9 (antibody, human IgG1, kappa, V domains shown, Rabbit-human chimeric anti-CD38: rabbit VH and VL on human IgG1 and kappa constant regions) VH: QSLEESGGDLVKPGASLTLTCTASGFSATTYYYYMCWVRQAPGKGLEWIACTYTGDGATYYATWAKGRFTISKTSSTTVTLQMTSLTAADTATYFCARSADNSIYYGYFNLWGPGTLVTVSS VL: AFELTQTPFSVSEPVGGTVTINCQASENIYSSLAWYQQKPGQPPKLLIYRASTLASGVPSRFSGSGSGTEFTLTISGVQSDDAATYYCQTYYGSTSTGFTFGGGTEVVVKR : ____
~0.06 nM

Record: 25F12 (antibody, human IgG1, kappa, V domains shown, Rabbit-human chimeric anti-CD38: rabbit VH and VL on human IgG1 and kappa constant regions) VH: RSLEESGGRLVTPGTPLTLTCTTSGFSLSSYDMSWVRQAPGKGLEWIGYITYGGNIYYATWAKGRFTTSKTSTTVDLKITSPTTEDTATYFCARTLYTGGRYYFSLWGPGTLVTVSS VL: AQVLTQTPSSVSAVVGGTVTINCQSSQSIANSNEVAWYQQKLGQPPKLLIYDASTLASGVPSRFSGSGSGTQFTLIISGVQSDDAATYYCQGTVYDNVWYAAFGGGTEVVVKR
~0.06 nM

The measurements presented in this section are drawn from patent US20220002432A1.
